Biological target: Neurotensin receptor type 1 (Homo sapiens) (UniProt P30989)
Sequence (P30989 whole entry, looked up): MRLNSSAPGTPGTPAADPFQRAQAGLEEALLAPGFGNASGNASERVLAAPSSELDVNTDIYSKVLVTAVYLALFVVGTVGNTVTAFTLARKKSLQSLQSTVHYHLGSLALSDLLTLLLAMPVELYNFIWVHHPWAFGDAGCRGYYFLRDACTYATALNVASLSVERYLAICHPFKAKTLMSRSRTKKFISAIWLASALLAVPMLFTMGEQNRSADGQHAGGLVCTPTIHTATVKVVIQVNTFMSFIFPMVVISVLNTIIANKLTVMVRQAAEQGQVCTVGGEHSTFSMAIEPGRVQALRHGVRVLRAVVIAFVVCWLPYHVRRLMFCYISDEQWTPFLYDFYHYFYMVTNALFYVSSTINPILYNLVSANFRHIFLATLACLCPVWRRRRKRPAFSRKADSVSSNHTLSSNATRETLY
Assay: agonism at neurotensin receptor 1, calcium rise – cell-based, fluorescence, calcium flux, single concentration, SAR follow-up (AID 602466)
Settings: NTR1-expressing cells, at 30 µM (top of the series)
Measure: activation (%)
Numeric answer only, unit % assumed.

query_smiles=COc1ccc(-c2nc(C(=O)N[C@@H](CC(C)C)C(=O)O)cn2-c2ccnc3cc(Cl)ccc23)c(OC)c1 measure=activation unit_descriptor=% value_measured=35.9
query_smiles=COc1cc2c3nnc(-c4ccc(C)cc4)c-3cn(Cc3ccc(C)cc3)c2cc1OC measure=activation unit_descriptor=% value_measured=132
query_smiles=COc1cc2c3nnc(-c4ccc(F)cc4)c-3cn(Cc3ccc(F)cc3)c2cc1OC measure=activation unit_descriptor=% value_measured=95.3

API: value(readout=activation, system=Neurotensin receptor type 1 (Homo sapiens) (UniProt P30989)) for record COc1ccccc1-c1cc(C(=O)N[C@@H](CC(C)C)C(=O)O)nn1-c1ccnc2cc(Cl)ccc12 11.9

Note, next up: COc1cc2c3nnc(-c4ccc(F)cc4)c-3cn(Cc3ccc(Cl)cc3)c2cc1OC 67.8

====

Molecular target: Neurotensin receptor type 1 (Homo sapiens) (UniProt P30989)
Experiment: agonism at neurotensin receptor 1, calcium rise – cell-based, fluorescence, calcium flux, single concentration, SAR follow-up (AID 602466)
Conditions: NTR1-expressing cells, at 30 µM (top of the series)
Measured activation values are reported for all entries that follow.
Numeric answer only, unit % assumed.

// solved cases for activation follow
query_smiles=COc1cccc(OC)c1-c1cc(C(=O)N[C@@H](CC(C)C)C(=O)O)nn1-c1ccnc2cc(Cl)ccc12 measure=activation value_measured=48.7
query_smiles=COc1cc2c3nnc(-c4ccc(Cl)cc4)c-3cn(Cc3ccc(F)cc3)c2cc1OC measure=activation value_measured=187

API: value(readout=activation, system=Neurotensin receptor type 1 (Homo sapiens) (UniProt P30989)) for record COc1cc2c3nnc(-c4ccc(C)c(C)c4)c-3cn(Cc3ccc(C)cc3)c2cc1OC 131

====

Target: Neurotensin receptor type 1 (Homo sapiens) (UniProt P30989)
Test: agonism at neurotensin receptor 1, calcium rise – cell-based, fluorescence, calcium flux, single concentration, SAR follow-up (AID 602466)
Settings: NTR1-expressing cells, at 30 µM (top of the series)
Measured activation values are reported for all entries that follow.
Numeric answer only, unit % assumed.

// solved cases for activation follow
query_smiles=Cc1ccc(Cn2cc3c(-c4ccc(F)cc4)nnc-3c3ccccc32)cc1 study_system="Neurotensin receptor type 1 (Homo sapiens) (UniProt P30989)" measure=activation unit_descriptor=% value_measured=9.46
query_smiles=COc1cc2c3nnc(-c4ccc(Cl)cc4)c-3cn(Cc3ccccc3)c2cc1OC study_system="Neurotensin receptor type 1 (Homo sapiens) (UniProt P30989)" measure=activation unit_descriptor=% value_measured=99.2
query_smiles=COc1ccc2c(c1)c1nnc(-c3ccc(F)cc3)c-1cn2Cc1ccccc1 study_system="Neurotensin receptor type 1 (Homo sapiens) (UniProt P30989)" measure=activation unit_descriptor=% value_measured=10.2
query_smiles=COc1cc2c3nnc(-c4ccc(C)c(C)c4)c-3cn(Cc3ccc(F)cc3)c2cc1OC study_system="Neurotensin receptor type 1 (Homo sapiens) (UniProt P30989)" measure=activation unit_descriptor=% value_measured=38.2

What value of activation has been reported for the following compound? COc1ccc2c(c1)c1nnc(-c3ccc(F)cc3)c-1cn2Cc1ccc(F)cc1 39.5

Note, next up: COc1ccc(Cn2cc3c(-c4ccc(F)cc4)nnc-3c3cc(OC)c(OC)cc32)cc1 56.6

Note, next up: COc1cc2c3nnc(-c4ccc(F)cc4)c-3cn(Cc3ccccc3)c2cc1OC 110

The measurements presented in this section are drawn from PubChem BioAssay AID602466.
